# TESTED TARGET: BTK (Homo sapiens (Human))
# Sequence (Q06187 whole entry, looked up, species assumed): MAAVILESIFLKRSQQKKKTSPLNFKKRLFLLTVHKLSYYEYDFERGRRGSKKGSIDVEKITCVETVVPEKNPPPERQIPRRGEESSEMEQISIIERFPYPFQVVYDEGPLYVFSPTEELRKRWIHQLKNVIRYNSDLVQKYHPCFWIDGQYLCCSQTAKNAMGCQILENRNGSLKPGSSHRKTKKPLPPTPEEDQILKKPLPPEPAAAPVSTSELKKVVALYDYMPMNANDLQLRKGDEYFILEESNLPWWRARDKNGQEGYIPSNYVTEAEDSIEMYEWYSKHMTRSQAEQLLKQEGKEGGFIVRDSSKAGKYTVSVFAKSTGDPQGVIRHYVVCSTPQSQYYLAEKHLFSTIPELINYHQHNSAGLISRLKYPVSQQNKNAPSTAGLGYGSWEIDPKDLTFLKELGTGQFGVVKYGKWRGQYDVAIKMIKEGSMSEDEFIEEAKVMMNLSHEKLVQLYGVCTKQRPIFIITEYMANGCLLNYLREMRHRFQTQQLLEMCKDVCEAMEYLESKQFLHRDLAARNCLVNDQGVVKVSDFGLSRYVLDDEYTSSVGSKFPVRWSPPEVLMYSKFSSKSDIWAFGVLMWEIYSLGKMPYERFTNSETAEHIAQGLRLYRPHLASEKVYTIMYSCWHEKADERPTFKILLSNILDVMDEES
# EXPERIMENT SUMMARY: biochemical
QUANTITY: IC50

Observe how each entry below is paired with its result.
COMPOUND: CC#CC(=O)N1CC[C@@H](c2nc(-c3ccc(Oc4cccc(OC)c4F)cc3)c3cncc(OC4CCOC4)n23)C1 (stereo partly drawn)
TESTED TARGET: BTK (Homo sapiens (Human))
IC50: 10 to 100 nM
--
COMPOUND: CC#CC(=O)N1CCC[C@H]1c1nc(-c2ccc(Oc3cccc(OC)c3F)cc2)c2cncc(C)n12
TESTED TARGET: BTK (Homo sapiens (Human))
IC50: 100 to 1000 nM
--
COMPOUND: C=CC(=O)N1CCC[C@H]1c1nc(-c2ccc(Oc3ccc(OC)cc3)cc2)c2cnccn12
TESTED TARGET: BTK (Homo sapiens (Human))
IC50: 10 to 100 nM

Please supply IC50 for each of the following items, keeping them in order.
1. CC#CC(=O)N1CCC[C@H]1c1nc(-c2ccc(OCc3cccc(Cl)c3)cc2)c2cnccn12
2. CC#CC(=O)N1CCCC[C@H]1c1nc(-c2ccc(C(=O)Nc3ccccn3)cc2)c2cncc(C)n12
3. CC#CC(=O)N1CCCC[C@H]1c1nc(-c2ccc(Oc3cccc(Cl)c3F)cc2)c2c(C)nccn12
4. C=CC(=O)N1CCCC[C@H]1c1nc(-c2ccc(Oc3cccc(OC)c3)cc2)c2cnccn12

a:
["1000 to 10000 nM", "1000 to 10000 nM", "10 to 100 nM", "10 to 100 nM"]

Please supply IC50 for each of the following items, keeping them in order.
1. CC#CC(=O)N1CC[C@@H](c2nc(-c3ccc(C(=O)Nc4cc(C(F)(F)F)ccn4)cc3F)c3cnccn23)C1
2. C=CC(=O)N1CCC[C@H]1c1nc(-c2ccc(COc3ccccc3F)cc2)c2cnccn12

a:
10 to 100 nM
10 to 100 nM

Please supply IC50 for each of the following items, keeping them in order.
1. COc1cccc(Oc2ccc(-c3nc([C@@H]4CCCN4C(=O)C(N)=O)n4ccncc34)cc2)c1F
2. C=CC(=O)N1CCC[C@H]1c1nc(-c2ccc(C(=O)Nc3ccccn3)cc2)c2cncc(C)n12
3. CC#CC(=O)N1CCC[C@H]1c1nc(-c2ccc(COc3ccccc3)cc2)c2cnccn12
4. CC#CC(=O)N1CCCC[C@H]1c1nc(-c2ccc(Oc3cccc(OC)c3F)cc2)c2cncc(C)n12

a:
["1000 to 10000 nM", "10 to 100 nM", "1000 to 10000 nM", "100 to 1000 nM"]

Please supply IC50 for each of the following items, keeping them in order.
1. CC#CC(=O)N1CCC[C@H]1c1nc(-c2ccc(C(=O)Nc3ccccn3)cc2)c2c(CO)nccn12
2. C=CC(=O)N1CC[C@@H](c2nc(-c3ccc(C(=O)Nc4ccccn4)cc3)c3cnccn23)C1

a:
1. 100 to 1000 nM
2. 10 to 100 nM

====

# TESTED TARGET: UniProt:Q06187
# EXPERIMENT SUMMARY: biochemical
pIC50: −log10 of the molar value.
QUANTITY: pIC50

COMPOUND: CC#CC(=O)N1CCC[C@H]1c1nc(-c2ccc(Oc3cccc(OC)c3C)cc2)c2cnccn12 [Example 21]
pIC50: 6.00 to 7.00

Please supply pIC50 for each of the following items, keeping them in order.
1. C=CC(=O)N1CC[C@@H](c2nc(-c3ccc(Oc4cccc(OC)c4F)cc3)c3cncc(OC(C)C)n23)C1 [Example 114]
2. C=CC(=O)N1CCC[C@@H](c2nc(-c3ccc(Oc4cccc(OC)c4F)cc3)c3cncc(C)n23)C1 [Example 70]
3. CC#CC(=O)N1CC[C@@H](c2nc(-c3ccc(Oc4cccc(OC)c4F)cc3)c3c(CF)nccn23)C1 [Example 120]
4. C=CC(=O)N1CC[C@@H](c2nc(-c3ccc(Oc4cccc(OC)c4F)cc3)c3cncc(C)n23)C1 [Example 72]
5. C=CC(=O)N1CCCC[C@H]1c1nc(-c2ccc(Oc3cccc(OC)c3F)cc2)c2c(C(=O)OC)nccn12 [Example 66]
6. CC#CC(=O)N1CCC[C@@H](c2nc(-c3ccc(Oc4cccc(OC)c4)cc3)c3cnccn23)C1 [Example 52]
7. CC#CC(=O)N1CCCC[C@H]1c1nc(-c2ccc(OCc3cccc(F)c3)cc2)c2c(C)nccn12 [Example 140]
8. CC#CC(=O)N1CCC[C@H]1c1nc(-c2ccc(OCc3cccc(F)c3F)cc2)c2cnccn12 [Example 127]

a:
7.00 to 8.00
7.00 to 8.00
7.00 to 8.00
7.00 to 8.00
5.00 to 6.00
6.00 to 7.00
6.00 to 7.00
5.00 to 6.00

====

# TESTED TARGET: UniProt Q06187
# EXPERIMENT SUMMARY: biochemical
pIC50: −log10 of the molar value.
QUANTITY: pIC50

Observe how each entry below is paired with its result.
SMILES TEXT: C=CC(=O)N1CCC[C@H]1c1nc(-c2ccc(OCc3cccc(F)c3)cc2)c2cnccn12
TESTED TARGET: UniProt Q06187
pIC50: 7.00 to 8.00
//
SMILES TEXT: CC#CC(=O)N1CC[C@@H](c2nc(-c3ccc(Oc4cccc(OC)c4F)cc3)c3cncc(OCCN(C)C)n23)C1
TESTED TARGET: UniProt Q06187
pIC50: 7.00 to 8.00
//
SMILES TEXT: CC#CC(=O)N1CC[C@@H](c2nc(-c3ccc(Oc4cccc(OC)c4F)cc3)c3c(CC)nccn23)C1
TESTED TARGET: UniProt Q06187
pIC50: 7.00 to 8.00

q: For UniProt Q06187, give pIC50 of the listed compound: `CC#CC(=O)N1CCC[C@@H](c2nc(-c3ccc(C(=O)Nc4ccccn4)cc3)c3c(C)ncc(C)n23)C1`
a: 6.00 to 7.00

Taken from patent US10933063B2.
